- protocol: Cytotoxicity against human M24 cells assessed as reduction in cell viability measured after 72 hrs by Celltiter-Glo luminescent assay
- Assay type: functional, cell-based
- conditionDescription: M24, 72 h
pIC50: −log10 of the molar value.
quantityMeasured: pIC50

## Input Quote pIC50 reported for CSc1nc(Nc2cccc(Cl)c2)c2cnn(CCc3ccccc3)c2n1 please.
## Output 5.05 to 7.05

* * *

- protocol: Cytotoxicity against human M7 cells assessed as reduction in cell viability measured after 72 hrs by Celltiter-Glo luminescent assay
- Assay type: functional, cell-based
pIC50: −log10 of the molar value.
quantityMeasured: pIC50

## Input Give pIC50 for CSc1nc(Nc2cccc(Cl)c2)c2cnn(CCc3ccccc3)c2n1
## Output 5.05 to 7.05
